The reported numbers originate from ChEMBL document CHEMBL1124442.

- System: P388
- experimental-details: Inhibition of 10e6 P388 leukemic cells in mice, intraperitoneal administration
- Type: functional, Mus musculus
Optimal dose overview
Numeric answer only, unit mg/kg assumed.

chemical-structure: O=C(O)Cc1c(O)ccc2c(=O)c3ccccc3oc12
units-symbol: mg/kg
Optimal dose: 500
//
chemical-structure: Cc1ccc2oc3c(CC(=O)O)cccc3c(=O)c2c1
units-symbol: mg/kg
Optimal dose: 500
//
chemical-structure: COc1cccc2c(=O)c3cccc(CC(=O)O)c3oc12
units-symbol: mg/kg
Optimal dose: 150

**Query** Specify Optimal dose for `O=C(O)Cc1cccc2c(=O)c3cc(Cl)ccc3oc12` and stop.
**Result** 150

**Query** Specify Optimal dose for `COc1cccc2oc3c(CC(=O)O)cccc3c(=O)c12` and stop.
**Result** 330

**Query** Specify Optimal dose for `O=C(O)Cc1cc(Cl)cc2c(=O)c3ccccc3oc12` and stop.
**Result** 150
